// provenance: a melting point compilation (Tetko et al.; mined from patent text by program, amines drawn as free bases though some values may be those of a salt)

RESULT_TYPE: melting point

Consider the reported melting point for these compounds:
CCc1nc(C)cn1CC1CC2c3cccc4[nH]cc(c34)CC2N(C)C1 (stereo unspecified)	172 to 174 °C
CCOC(=O)c1cc(O)c2nc(C)c(C)n2c1	219 to 221 °C

Required: melting point, one value per compound below.
1. Nc1nc(Cc2ccccc2)no1
2. CCOC(=O)C(CC(=O)c1cccc(OC)c1)(NC(C)=O)C(=O)OCC
3. COc1ccc(C2=NN=C(C)C(C)c3cc(OC)c(OC)cc32)cc1OC (stereo unspecified)
4. CN1CCN(c2cccc(-c3cnn4c(N)c(-c5cccc(Br)c5)cnc34)c2)CC1

Response:
["142 to 145 °C", "119 to 120 °C", "201 to 203 °C", "195 to 197 °C"]

====

Exercise: for every item that follows, state its recorded melting point.

Required: melting point, one value per compound below.
1. COC(=O)c1cc(O)nn1Cc1ccc(Cl)cc1Cl
2. N#CC(=CO)c1ccc(Cl)cc1Cl
3. CNc1c(F)cccc1C(C)=O
4. Nc1cc(C(=O)O)cc(S(N)(=O)=O)c1NCc1ccccc1
5. COc1ccc(CC(=O)c2c(OC)cc(OC)cc2OC)c(OC)c1

Response:
1. 222 to 223 °C
2. 162 to 163 °C
3. 26 to 28 °C
4. 218 to 219 °C
5. 109 to 111 °C

====

Exercise: for every item that follows, state its recorded melting point.

COc1ccc(OC)c2c1C(=O)C=C(SCCCCCCO)C2=O	87 to 88 °C
NC(=O)COc1ccccc1[N+](=O)[O-]	190 to 191 °C
CC1(C)C(=O)NC(=O)c2c1ccc(N)c2[N+](=O)[O-]	259 to 263 °C
O=[N+]([O-])c1ccc(C=[N+]([O-])c2cccc(CO)c2)o1	187 to 188 °C

Moving on to another molecule below.
Sure, the documented melting point for "COc1ccc([C@H](CC(=O)O)n2ccn(CCCc3ccc4c(n3)NCCC4)c2=O)cn1" is 123 °C

====

RESULT_TYPE: melting point

Cc1ccn(-c2ccc(C(=O)N3Cc4cccn4Cc4ccccc43)c(Cl)n2)n1	171 to 172 °C
CC(=O)c1ccc(CCOc2ccc(CC3SC(=O)NC3=O)cc2)nc1 (centres undefined)	114 to 115 °C
O=c1c2c(nc3n1CCc1c-3[nH]c3cc(Cl)cc(Cl)c13)CCCC2	296 to 297 °C
CC1(C)C2CC[C@]1(C)C(=O)C(C(=O)Nc1ccc(F)c(Cl)c1)C2=O (some centres undefined)	87 to 89 °C

Required: melting point, one value per compound below.
1. CCOC(=O)C(=Nc1ccc(OC)cc1)c1cccn1C
2. CN1C(=O)N(c2cccc(Cl)c2)C(=O)C1S(=O)(=O)c1ccc(F)cc1 (centres undefined)
3. Cc1oc(-c2ccccc2)nc1COc1ccc(COc2nn(Cc3ccccc3)cc2C=O)cc1

Response:
83 to 85 °C
170 to 173 °C
133 to 134 °C

Required: melting point, one value per compound below.
1. c1nc(-c2ccc3c(c2)OCO3)c2cc3c(cc2n1)OCO3
2. CCn1c(N)c(-c2ncc[nH]2)c(=O)c2ccc(-c3ccc(C(C)C(=O)NCc4ccncc4)cc3)nc21 (centres undefined)

Response:
1. 180 to 185 °C
2. 186 °C

====

Exercise: for every item that follows, state its recorded melting point.

Consider the reported melting point for these compounds:
Fc1ccc(-c2nc(C(F)(F)F)nc(Cl)c2-c2ccccc2)cc1	67 to 68 °C
O=c1ccc(C(F)(F)F)cn1Cc1ccc([N+](=O)[O-])cc1	121 to 123 °C
Cc1nnc(-c2ccc(CN3C(=O)C4(COc5cc6c(cc54)CCO6)c4ccccc43)cc2)[nH]1 (stereo not given)	169 to 180 °C
COc1c(O)c(C)c(CN2CCOCC2)c(O)c1OC	127 to 130 °C
CCCCCSc1ncccc1C(=O)NCCCCn1cnc2c(N)nc3ccccc3c21	158 to 161 °C
CC1(C2CCC3C4CCC5CC(O)CCC5(C)C4C(OC(=O)CCl)CC32C)OCCO1 (stereo not given)	194 to 202 °C
CC=Cc1cccc2c(=O)c(C)c(C(=O)O)oc12	224 to 228 °C
Cn1ncc(/C=C/C(=O)Nc2ccc3c(c2)oc(=O)n3C)c1-c1ccc(F)cc1	265 to 266 °C

Required: melting point, one value per compound below.
1. C(#CCN(c1ccccc1)c1ccccc1)CN(c1ccccc1)c1ccccc1
2. CC(C)(C)OC(=O)Nc1cc(OCC#N)c(I)cc1[N+](=O)[O-]
3. O=C1N(N2CCOCC2)c2ccccc2C1(Cc1ccncc1)Cc1ccncc1
4. COc1ccc2c(C)c(CCO)c(=O)oc2c1
5. Cc1ccc(CCCNCC(O)c2cc3ccccc3o2)cc1 (stereo not given)
6. Cc1cc(-c2nc3cc(F)cc(F)c3c(=O)[nH]2)cc(C)c1OCCN1CCCC1
7. CC(C)(C)OC(=O)c1ncn2c1[C@@H]1CCCN1C(=O)c1cc(N)ccc1-2
8. O=Cc1ccc(C(=O)O)c(SCc2ccccc2)c1

Response:
84 to 86 °C
125 °C
200 to 203 °C
141 to 142 °C
118 to 119 °C
234 to 235 °C
223 to 224 °C
182 to 190 °C

Required: melting point, one value per compound below.
1. CCOC(=O)c1[nH]c(CC)c(CC)c1CC
2. CC1Cc2cc3c(cc2C(c2ccc([N+](=O)[O-])cc2)=NN1c1nnn[nH]1)OCO3 (stereo not given)
3. Cc1cccc(C2=C(c3ccc(S(C)(=O)=O)cc3)CN(C)C2=O)c1
4. CCCCCCCCCN(CCCCC)CCC(=O)O
5. CCCc1nc(SC(F)F)c(C(=O)O)n1Cc1ccc(-c2ccccc2S(=O)(=O)NC(=O)NCc2ccc(F)cc2)cc1
6. Cc1ccc(S(=O)(=O)N=NCNC[C@@H]2C[C@H](C(=O)O)N(C(=O)OC(C)(C)C)C2)cc1
7. CCc1cc2ccccn2c1C(=O)c1cc(Cl)c(O)c(Cl)c1
8. Cc1[nH]c2ccc(OCCN3CCCC3c3cccnc3)cc2c1C(=O)OCc1ccccc1 (stereo not given)

Response:
1. 47 to 49 °C
2. 263 to 264 °C
3. 163 to 165 °C
4. 168 to 176 °C
5. 122 °C
6. 132 to 133 °C
7. 206 °C
8. 126 to 127 °C

Required: melting point, one value per compound below.
1. CNC(=O)Nc1occ(C(C)(C)C)c1C#N
2. CCCNC(=O)C(C)Cc1ccc2cccc(Cc3ccc(C(=O)O)cc3OC)c2c1 (stereo not given)
3. CC(=O)Nc1ccc(Br)c2c1CN(C(C)=O)CC2
4. O=Cc1ccc2c(c1)C=C(C(=O)O)C(C(F)(F)F)O2 (stereo not given)
5. CC1=C(c2ccc(F)c(F)c2)C(=NO)CC1
6. CCNc1cc([N+](=O)[O-])ccc1OCCOC
7. CC(Cc1c[nH]c2ccccc12)(NC(=O)OC1C2CC3CC(C2)CC1C3)C(=O)c1ccccc1CCCC(=O)O (stereo not given)

Response:
1. 163 °C
2. 199 to 200 °C
3. 127 to 130 °C
4. 211 to 216 °C
5. 155 to 156 °C
6. 83 to 87 °C
7. 123 to 137 °C

====

Exercise: for every item that follows, state its recorded melting point.

CCCCn1c(=O)c2[nH]c(/C=C/c3cc(OC)c(OC)c(OC)c3)nc2n(CCCC)c1=O	206 to 207 °C
CC[C@H](C)[C@H](NC(=O)[C@@H]1CCCN1C(=O)OCc1ccccc1)C(=O)NCC(C)C	87 to 88 °C
COCn1c(Cl)c(Cl)c(C#N)c1Cl	48 to 49 °C
O=c1c(Cc2ccccc2)c(O)c2cccc3c2n1C(c1ccccc1)C3 (centres undefined)	252 to 254 °C
COc1cc([N+](=O)[O-])ccc1-c1ccc(-c2ccc([N+](=O)[O-])cc2OC)o1	308 to 310 °C

Required: melting point, one value per molecule below.
1. COC(=O)c1cc(C)c(-n2c(C)ccc2C)c(C)c1
2. O=C(O)Cc1ccc(NC(=O)c2ccccc2SSc2ccccc2C(=O)Nc2ccc(CC(=O)O)cc2)cc1
3. CC(N1C(=O)C(=O)N(c2ccc(C(C)(C)C)cc2)C1=S)C(C)(C)C (centres undefined)
4. Cc1ccc(C)c(OCc2ccccc2C(=NOC(F)F)C(N)=O)c1

Response:
1: 104 to 106 °C; 2: 257 to 260 °C; 3: 209 to 210 °C; 4: 153 to 156 °C

====

RESULT_TYPE: melting point

Consider the reported melting point for these compounds:
CC(C)C=CC1(C(F)(F)F)OCC(=O)Nc2ccc(F)c(F)c21 (stereo unspecified)	159 to 160 °C
COC1=C(Cc2ccc(Cl)cc2)C(=O)CC(C)(C)C1	62 to 63 °C
CCCCCCOc1ccc2c(c1)C=C(C=O)CO2	36 to 38 °C

Required: melting point, one value per compound below.
1. N#CC(C#N)=CN(N=C(C#N)C#N)c1ccc(C#N)cc1
2. CN1C(=O)C2CC2(c2ccc([N+](=O)[O-])cc2)C1=O (stereo unspecified)
3. Cc1oc(-c2cccnc2)nc1CCl

Response:
1. 231 °C
2. 148 to 150 °C
3. 87 to 88 °C
